# systemName: AKT (phospho-Ser^473-AKT) in BxPC-3 (Homo sapiens)
# runDescription: Western blot phospho-Ser473-AKT in BxPC-3 cells
# reportedConditions: BXPC-3, read-out: % pAKT Inhibition At 10 μM
readoutLabel: inhibition at 10 µM (%)
Express your answer in %, writing the number without its unit.

Field request: inhibition at 10 µM | item: CCc1nnc(NS(=O)(=O)c2ccc(N)cc2)s1 [Compound 109]
16

Field request: inhibition at 10 µM | item: CC(=O)Nc1ccc(S(=O)(=O)Nc2nnc(CC(=O)O)s2)cc1 [Compound 118]
19

Field request: inhibition at 10 µM | item: CCCCCCCCc1ccc(S(=O)(=O)Nc2nncs2)cc1 [Compound 153]
10

Field request: inhibition at 10 µM | item: CCOC(=O)Cc1nnc(NS(=O)(=O)c2ccc(NC(C)=O)cc2)s1 [Compound 118E]
55

Field request: inhibition at 10 µM | item: Cc1nnc(NS(=O)(=O)c2ccc(N)cc2)s1 [Compound 105]
11

----------
# runDescription: pH solubility profile / pKa
# Assay type: physicochemical
# reportedConditions: aqueous buffer solutions, from pH-solubility profile; read-out: additional pKa
readoutLabel: pKa

Field request: pKa | item: CCCCCCCCCCCCc1ccc(S(=O)(=O)Nc2nncs2)cc1
> 9

----------
# systemName: AKT (phospho-Ser^473 AKT) in HT-29 colon cancer cells (Homo sapiens)
# Construct: endogenous in cells; host or cells: HT-29
# Sequence (P31749 whole entry): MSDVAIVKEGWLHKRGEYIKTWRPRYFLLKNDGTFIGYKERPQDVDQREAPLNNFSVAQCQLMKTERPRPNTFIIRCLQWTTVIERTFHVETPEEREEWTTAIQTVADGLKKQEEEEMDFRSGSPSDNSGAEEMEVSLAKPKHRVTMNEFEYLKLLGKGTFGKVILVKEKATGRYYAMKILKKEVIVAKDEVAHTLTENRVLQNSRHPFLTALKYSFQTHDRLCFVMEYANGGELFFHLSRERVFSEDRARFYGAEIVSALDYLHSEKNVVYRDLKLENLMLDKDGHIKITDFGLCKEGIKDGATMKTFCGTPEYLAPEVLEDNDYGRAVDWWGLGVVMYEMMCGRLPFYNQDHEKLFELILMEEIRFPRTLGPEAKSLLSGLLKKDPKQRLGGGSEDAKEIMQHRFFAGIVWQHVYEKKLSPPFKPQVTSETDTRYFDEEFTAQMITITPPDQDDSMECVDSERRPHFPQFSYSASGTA
# runDescription: Inhibition of phospho-Ser473 AKT in HT-29 colon cancer cells (Table 11)
# Type: cell-based
# reportedConditions: human HT-29 colon cancer cells
Please go through the items and note down their IC50.

Field request: IC50 | item: CC1=NN(C(=O)c2ccc(N)cc2)C(=O)C1/N=N/c1ccc(S(=O)(=O)Nc2ncccn2)cc1 (stereo not drawn)
> 20 µM

Field request: IC50 | item: CC1=NN(C(=O)c2ccc(C(C)(C)C)cc2)C(=O)C1/N=N/c1ccc(S(=O)(=O)Nc2ncccn2)cc1 (stereo not drawn)
> 20 µM

Field request: IC50 | item: CC1=NN(C(=O)c2ccc(O)cc2)C(=O)C1/N=N/c1ccc(S(=O)(=O)Nc2ncccn2)cc1 (stereo not drawn)
> 20 µM

----------
# systemName: IRS1 PH domain (Homo sapiens, UniProt P35568)
# Sequence (P35568 12-115 limits assumed): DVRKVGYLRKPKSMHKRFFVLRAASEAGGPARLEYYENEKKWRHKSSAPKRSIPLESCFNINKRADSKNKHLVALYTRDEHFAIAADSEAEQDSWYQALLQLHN
readoutLabel: pKd
Interpret pKd as the negative base-10 log of the concentration measured in mol/L.

Missing value: pKd, IRS1 PH domain (Homo sapiens, UniProt P35568), entry CC1=NN(C(=O)c2ccc(O)cc2)C(=O)C1/N=N/c1ccc(S(=O)(=O)Nc2ncccn2)cc1 (stereo not shown) . Fill in?
5.76

----------
Please go through the items and note down their IC50.
# systemName: AKT (phospho-Ser^473 AKT) in NIH3T3 cells (Mus musculus)
# Construct: endogenous in cells; host or cells: NIH3T3
# Sequence (P31750 whole entry): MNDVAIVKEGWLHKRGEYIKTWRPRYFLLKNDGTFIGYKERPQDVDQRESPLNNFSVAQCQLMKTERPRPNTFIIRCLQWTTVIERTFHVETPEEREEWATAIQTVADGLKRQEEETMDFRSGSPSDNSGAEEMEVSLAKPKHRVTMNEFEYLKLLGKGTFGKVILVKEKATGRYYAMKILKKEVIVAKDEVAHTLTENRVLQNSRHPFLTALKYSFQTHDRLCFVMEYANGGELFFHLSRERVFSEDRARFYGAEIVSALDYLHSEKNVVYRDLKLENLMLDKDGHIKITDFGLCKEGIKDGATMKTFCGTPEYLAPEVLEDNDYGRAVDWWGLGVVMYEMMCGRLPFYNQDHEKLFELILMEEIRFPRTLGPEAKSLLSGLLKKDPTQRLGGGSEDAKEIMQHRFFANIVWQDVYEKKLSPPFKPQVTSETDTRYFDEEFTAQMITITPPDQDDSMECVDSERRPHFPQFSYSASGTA
# runDescription: Inhibition of phospho-Ser473 AKT in NIH3T3 cells
# Type: cell-based
Express your answer in µM, writing the number without its unit.

Field request: IC50 | item: CC1=NN(C(=O)c2ccc(O)cc2)C(=O)C1/N=N/c1ccc(S(=O)(=O)Nc2ncccn2)cc1 (stereo not shown)
5

Field request: IC50 | item: CC1=NN(C(=O)c2ccc(Cl)cc2)C(=O)C1/N=N/c1ccc(S(=O)(=O)Nc2ncccn2)cc1 (stereo not shown)
4

Field request: IC50 | item: CC1=NN(C(=O)c2ccccc2)C(=O)C1/N=N/c1ccc(S(=O)(=O)Nc2ncccn2)cc1 (stereo not shown)
11

----------
# runDescription: Cytotoxicity in HT-29 cells
# Assay type: cell-based, human
# reportedConditions: human
Please go through the items and note down their IC50.
Express your answer in µM, writing the number without its unit.

Field request: IC50 | item: CC1=NN(C(=O)c2ccc(C(C)(C)C)cc2)C(=O)C1/N=N/c1ccc(S(=O)(=O)Nc2ncccn2)cc1 (stereo not shown) [Compound 332]
25

Field request: IC50 | item: CC1=NN(C(=O)c2ccccc2)C(=O)C1/N=N/c1ccc(S(=O)(=O)Nc2ncccn2)cc1 (stereo not shown) [Compound 331]
14

----------
Please go through the items and note down their pIC50.
# Test system: MiaPaca-2 pancreatic cell line
# runDescription: MTT cell survival, MiaPaca-2
# Assay type: cell-based
# reportedConditions: Homo sapiens, MIA PaCa-2; MiaPaca-2, MTT
pIC50: −log10 of the molar value.

Missing value: pIC50, MiaPaca-2 pancreatic cell line, entry CCCCCCCCCC(=O)Nc1ccc(S(=O)(=O)Nc2nncs2)cc1 [Compound 101] . Fill in?
4.05

Missing value: pIC50, MiaPaca-2 pancreatic cell line, entry CC(=O)Nc1ccc(S(=O)(=O)Nc2nncs2)cc1 [Compound 102] . Fill in?
< 4.00

Missing value: pIC50, MiaPaca-2 pancreatic cell line, entry Nc1ccc(S(=O)(=O)Nc2nncs2)cc1 [Compound 100] . Fill in?
< 4.00

Missing value: pIC50, MiaPaca-2 pancreatic cell line, entry COCCOCCOCC(=O)Nc1ccc(S(=O)(=O)Nc2nncs2)cc1 [Compound 103] . Fill in?
< 4.00

----------
# runDescription: Metabolic stability, incubation with HT-29 cells
# Format: in vitro ADME
# reportedConditions: human, incubating with HT-29 cells at maximum DMEM concentration at 37° C., read-out: Metabolic half life
Please go through the items and note down their half-life.
Express your answer in h, writing the number without its unit.

Field request: half-life | item: CC1=NN(C(=O)c2ccc(O)cc2)C(=O)C1/N=N/c1ccc(S(=O)(=O)Nc2ncccn2)cc1 (centres unmarked)
2.3

Field request: half-life | item: CC1=NN(C(=O)c2ccccc2)C(=O)C1/N=N/c1ccc(S(=O)(=O)Nc2ncccn2)cc1 (centres unmarked)
1.03

Field request: half-life | item: CC1=NN(C(=O)c2ccc(Cl)cc2)C(=O)C1/N=N/c1ccc(S(=O)(=O)Nc2ncccn2)cc1 (centres unmarked)
1.03

Field request: half-life | item: CC1=NN(C(=O)c2ccc(C(C)(C)C)cc2)C(=O)C1/N=N/c1ccc(S(=O)(=O)Nc2ncccn2)cc1 (centres unmarked)
1.52

----------
# systemName: AKT (phospho-Ser^473-AKT) in BxPC-3 (Homo sapiens, UniProt P31749)
# Sequence (P31749 whole entry): as the sequence (P31749 whole entry) above
# runDescription: Western blot phospho-Ser473-AKT in BxPC-3 cells
# reportedConditions: BXPC-3, read-out: % pAKT Inhibition At 10 μM
readoutLabel: inhibition at 10 µM

Field request: inhibition at 10 µM | item: CCOC(=O)c1nnc(NS(=O)(=O)c2ccc(NC(C)=O)cc2)s1 [Compound 122E]
< 10%

Field request: inhibition at 10 µM | item: CC(=O)Nc1ccc(S(=O)(=O)Nc2nnc(C(C)(C)C)s2)cc1
20%

Field request: inhibition at 10 µM | item: Nc1ccc(S(=O)(=O)Nc2nnc(S(N)(=O)=O)s2)cc1
18%

Field request: inhibition at 10 µM | item: Nc1ccc(S(=O)(=O)Nc2nnc(CO)s2)cc1
10%

Field request: inhibition at 10 µM | item: CCCCCCCCCCCCc1ccc(S(=O)(=O)Nc2nnc(C)s2)cc1
64%
